- assayed.system: ECF26_4464
Kindly supply the reported fold repression values for the records listed here.
Write the value as a bare number.

Query: Fill blank: measured fold repression of the binder AS15_436 (protein) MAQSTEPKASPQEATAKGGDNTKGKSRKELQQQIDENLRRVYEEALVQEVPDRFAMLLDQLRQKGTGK is ____.
Response: 24.7

Query: fold repression; subject: AS03_1198 (protein) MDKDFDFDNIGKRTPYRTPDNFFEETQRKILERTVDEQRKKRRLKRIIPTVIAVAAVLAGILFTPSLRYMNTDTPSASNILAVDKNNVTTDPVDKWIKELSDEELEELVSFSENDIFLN
Response: 1.48

Query: What value of fold repression has been reported for the following binder? AS15_524 (protein) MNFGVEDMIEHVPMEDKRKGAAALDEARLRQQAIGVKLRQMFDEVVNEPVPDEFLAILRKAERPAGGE
Response: 28.2

Query: fold repression lookup needed for AS16_973 (protein) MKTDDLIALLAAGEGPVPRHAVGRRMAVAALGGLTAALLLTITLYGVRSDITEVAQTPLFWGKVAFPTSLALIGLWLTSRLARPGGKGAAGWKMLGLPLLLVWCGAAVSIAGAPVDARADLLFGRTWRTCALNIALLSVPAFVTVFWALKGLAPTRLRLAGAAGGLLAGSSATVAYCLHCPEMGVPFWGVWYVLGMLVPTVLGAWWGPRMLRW , thanks.
Response: 1.46

Query: Fill in the blank: the reported fold repression of AS22_4450 (protein) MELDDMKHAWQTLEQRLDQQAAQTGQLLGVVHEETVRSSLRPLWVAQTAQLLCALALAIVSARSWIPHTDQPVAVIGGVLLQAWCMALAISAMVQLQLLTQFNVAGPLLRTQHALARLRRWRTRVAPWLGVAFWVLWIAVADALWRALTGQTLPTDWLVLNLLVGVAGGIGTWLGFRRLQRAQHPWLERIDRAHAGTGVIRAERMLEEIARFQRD is ____.
Response: 2.51

Query: Look up fold repression: AS25_1645 (protein) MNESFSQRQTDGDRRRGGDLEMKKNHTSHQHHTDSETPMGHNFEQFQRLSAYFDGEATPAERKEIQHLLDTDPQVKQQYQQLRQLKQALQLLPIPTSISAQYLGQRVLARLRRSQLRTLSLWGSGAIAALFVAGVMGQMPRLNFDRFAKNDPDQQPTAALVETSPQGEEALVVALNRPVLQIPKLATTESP
Response: 15.3

Query: Bench note: what fold repression did AS22_1147 (protein) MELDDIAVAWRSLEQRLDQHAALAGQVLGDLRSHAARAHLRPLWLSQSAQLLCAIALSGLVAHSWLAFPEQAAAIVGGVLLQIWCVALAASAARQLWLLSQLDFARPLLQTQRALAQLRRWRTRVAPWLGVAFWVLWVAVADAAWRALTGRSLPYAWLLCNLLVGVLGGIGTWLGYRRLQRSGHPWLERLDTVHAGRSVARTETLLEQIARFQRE show?
Response: 3.82
